# tested target: Cytochrome P450 2C9 (Homo sapiens, UniProt P11712)
# Sequence (P11712 whole entry): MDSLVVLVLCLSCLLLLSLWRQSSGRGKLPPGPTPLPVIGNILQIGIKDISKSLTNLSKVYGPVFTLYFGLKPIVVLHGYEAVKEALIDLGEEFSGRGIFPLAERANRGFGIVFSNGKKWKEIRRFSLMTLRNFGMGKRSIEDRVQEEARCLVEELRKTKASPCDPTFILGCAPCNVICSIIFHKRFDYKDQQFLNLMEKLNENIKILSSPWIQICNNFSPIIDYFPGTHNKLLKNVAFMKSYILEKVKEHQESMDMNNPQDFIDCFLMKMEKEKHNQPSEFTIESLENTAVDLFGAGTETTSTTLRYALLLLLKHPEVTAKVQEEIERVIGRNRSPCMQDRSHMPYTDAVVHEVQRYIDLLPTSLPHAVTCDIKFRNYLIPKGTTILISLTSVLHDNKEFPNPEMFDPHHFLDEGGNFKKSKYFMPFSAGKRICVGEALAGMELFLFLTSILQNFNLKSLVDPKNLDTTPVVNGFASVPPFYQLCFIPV
# assay overview: Inhibition of recombinant human CYP2C9 using 7-methoxy-4-(trifluoromethyl)coumarin fluorescent substrate in presence of NADPH-generating system after 15 mins
quantity measured: IC50

stdin: Param item = `O=C(O)CNc1cccc(CN(Cc2ccc(-n3cccn3)cc2)S(=O)(=O)c2cccnc2)n1` ; retrieve measured IC50.
stdout: > 20 µM

* * *

# tested target: Prostaglandin E2 receptor EP2 subtype (Homo sapiens)
# assay overview: Displacement of [3H]prostaglandin E2 from human EP2 receptor expressed in HEK293 cell membranes after 60 mins by liquid scintillation counting
quantity measured: pIC50
The scale used: pIC50 is minus the common logarithm of the concentration in molar units.

1) O=C(O)CNc1cccc(CN(Cc2ccc(-n3cccn3)cc2)S(=O)(=O)c2cccnc2)n1 [OMIDENEPAG] = 8.00

Next compound, pIC50 to be filled in.
stdin: For the compound shown here, CC(C)OC(=O)CNc1cccc(CN(Cc2ccc(-n3cccn3)cc2)S(=O)(=O)c2cccnc2)n1 [OMIDENEPAG ISOPROPYL] , give the reported pIC50.
stdout: 5.38

* * *

# tested target: Prostaglandin E2 receptor EP2 subtype (Homo sapiens, UniProt P43116)
# Sequence (P43116 whole entry): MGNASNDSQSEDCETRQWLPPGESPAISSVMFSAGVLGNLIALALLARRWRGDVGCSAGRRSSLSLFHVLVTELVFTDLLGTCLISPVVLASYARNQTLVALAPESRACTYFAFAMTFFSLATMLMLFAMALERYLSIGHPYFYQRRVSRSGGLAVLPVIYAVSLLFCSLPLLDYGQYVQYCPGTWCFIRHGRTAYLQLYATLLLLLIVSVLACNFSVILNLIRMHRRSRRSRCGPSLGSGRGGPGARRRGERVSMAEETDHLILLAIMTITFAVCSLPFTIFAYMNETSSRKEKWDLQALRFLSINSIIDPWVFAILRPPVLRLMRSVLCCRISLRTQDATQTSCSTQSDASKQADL
# assay overview: Agonist activity at recombinant human EP2 receptor expressed in HEK293 cells assessed as induction of cAMP accumulation after 30 mins
Cut-off 100 nM on EC50: below means label 1, at or above means label 0.

1) CC(C)(C)c1cccc(CN(Cc2cccc(NCC(=O)O)n2)S(=O)(=O)c2cccnc2)c1 = label 0
2) CC(C)(C)c1ccc(CN(Cc2ccnc(NCC(=O)O)c2)S(=O)(=O)c2cccnc2)cc1 = label 0
3) O=C(O)CNc1cccc(CN(Cc2ccc(C(F)(F)F)cc2)S(=O)(=O)c2cccnc2)n1 = label 0
4) CC(C)(C)c1ccc(CN(Cc2cccc(NCC(=O)O)n2)S(=O)(=O)c2ccccc2F)cc1 = label 1
5) O=C(O)CNc1cccc(CN(Cc2ccc(-c3ccnnc3)cc2)S(=O)(=O)c2cccnc2)n1 = label 0

Next:
stdin: Check if EC50 falls below 100 nM for `CN(CC(=O)O)c1cccc(CN(Cc2ccc(C(C)(C)C)cc2)S(=O)(=O)c2cccnc2)n1` .
stdout: label 0

* * *

# tested target: Cytochrome P450 2D6 (Homo sapiens, UniProt P10635)
# Sequence (P10635 whole entry): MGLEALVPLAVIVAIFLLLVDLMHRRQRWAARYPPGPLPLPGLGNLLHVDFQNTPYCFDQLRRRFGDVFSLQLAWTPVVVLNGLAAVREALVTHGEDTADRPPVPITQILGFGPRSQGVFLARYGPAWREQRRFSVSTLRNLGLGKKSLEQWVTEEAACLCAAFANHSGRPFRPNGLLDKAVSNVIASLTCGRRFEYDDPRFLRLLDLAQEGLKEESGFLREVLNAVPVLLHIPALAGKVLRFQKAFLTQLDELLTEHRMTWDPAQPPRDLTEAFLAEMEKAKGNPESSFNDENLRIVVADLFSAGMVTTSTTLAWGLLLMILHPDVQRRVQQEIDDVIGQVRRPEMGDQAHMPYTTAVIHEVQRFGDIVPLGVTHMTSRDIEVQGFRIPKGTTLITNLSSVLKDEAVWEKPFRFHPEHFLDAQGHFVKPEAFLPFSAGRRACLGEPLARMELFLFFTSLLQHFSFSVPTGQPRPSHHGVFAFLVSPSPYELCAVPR
# assay overview: Inhibition of recombinant human CYP2D6 using 3-(2-(N,N-diethyl-N-methylammonium)ethyl)-7-methoxy-4-methylcoumariniodide fluorescent substrate in presence of NADPH-generating system after 15 mins
quantity measured: IC50

stdin: Which IC50 is reported with Cytochrome P450 2D6 (Homo sapiens, UniProt P10635) for this entry: `O=C(O)CNc1cccc(CN(Cc2ccc(-n3cccn3)cc2)S(=O)(=O)c2cccnc2)n1` ?
stdout: > 20 µM

* * *

# assay overview: Apparent permeability of the compound at 100 uM after 5 hrs by PAMPA
# Assay type: ADME
quantity measured: Papp at 5 h, 100 µM (×10⁻⁶ cm/s)
The response must be a number in ×10⁻⁶ cm/s with no trailing unit.

1. O=C(O)CNc1cccc(CN(Cc2ccc(-n3cccn3)cc2)S(=O)(=O)c2cccnc2)n1 = 0.9

Now take the following molecule into account.
stdin: Record request: Papp at 5 h, 100 µM value, item `CC(C)OC(=O)CNc1cccc(CN(Cc2ccc(-n3cccn3)cc2)S(=O)(=O)c2cccnc2)n1`
stdout: 28
